So I've got a bunch of compounds here, and I need their MIC (anti-bacterial activity) values.
Tested on: methicillin-resistant Staphylococcus epidermidis (MRSE)
PROCEDURE_DETAILS: MIC, two-fold agar dilution (CLSI), clinical isolates
Assay type: cell-based
TEST_CONDITIONS: strain MRSE 15-1
Quote the value and follow it with the unit of measurement.

Entry CC(C)(C)c1cc(NC(=O)[C@@H]2CC3(CC3)CN2C(=O)[C@H](CC2CCCC2)CN(O)C=O)no1 [Example 38] — recorded MIC (anti-bacterial activity) = 0.25 µg/mL

Entry O=CN(O)C[C@@H](CC1CCCC1)C(=O)N1CC2(CC2)C[C@H]1C(=O)Nc1ccno1 [Example 37] — recorded MIC (anti-bacterial activity) = 0.5 µg/mL

Entry O=CN(O)C[C@@H](CC1CCCC1)C(=O)N1CC2(CC2)C[C@H]1C(=O)Nc1ccncn1 [Example 27] — recorded MIC (anti-bacterial activity) = 0.06 µg/mL

Entry Cc1cnc(NC(=O)[C@@H]2CC3(CC3)CN2C(=O)[C@H](CC2CCCC2)CN(O)C=O)s1 [Example 29] — recorded MIC (anti-bacterial activity) = 0.06 µg/mL

Every entry's value here was drawn from patent US10738028B2.
